biological target: Cathepsin K (Homo sapiens, UniProt P43235); experiment: Cathepsin K inhibition assay, selectivity for cathepsin S over cathepsin K; type: biochemical; conditions: ratio of cathepsin K inhibition constant to cathepsin S inhibition constant
Sequence (P43235 115-329, species assumed): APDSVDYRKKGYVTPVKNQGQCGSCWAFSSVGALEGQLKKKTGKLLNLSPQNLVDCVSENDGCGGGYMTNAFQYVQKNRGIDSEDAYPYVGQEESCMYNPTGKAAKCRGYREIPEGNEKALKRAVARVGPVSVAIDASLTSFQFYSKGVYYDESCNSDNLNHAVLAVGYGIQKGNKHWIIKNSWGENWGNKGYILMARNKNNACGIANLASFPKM

| compound | target.system | Selectivity for Cat. S over Cat. K |
| --- | --- | --- |
| O=C1C[C@H](NC(=O)[C@H](CC2CCCCC2)NC(=O)OCc2ccccc2)C(OCc2ccccc2)O1 (stereo partly shown) [Example 11] | Cathepsin K (Homo sapiens, UniProt P43235) | + (+, >10) |
| O=C1C[C@H](NC(=O)[C@@H](CC(=O)N2CCOCC2)CC2CCCCC2)C(O)O1 (stereo partly shown) [Example 6] | Cathepsin K (Homo sapiens, UniProt P43235) | ++ (++, >100) |
| O=C1C[C@H](NC(=O)[C@H](CC2CCCC2)NS(=O)(=O)c2cccc(OC(F)(F)F)c2)C(O)O1 (stereo partly shown) [Example 8] | Cathepsin K (Homo sapiens, UniProt P43235) | ++ (++, >100) |
| O=C1C[C@H](NC(=O)[C@H](CC2CCCC2)NC(=O)c2ccc(-c3cccc(C(F)(F)F)c3)o2)C(O)O1 (stereo partly shown) [Example 23] | Cathepsin K (Homo sapiens, UniProt P43235) | ++ (++, >100) |
| O=C1C[C@H](NC(=O)[C@H](CC2CCCC2)NC(=O)N2CCOCC2)C(O)O1 (stereo partly shown) [Example 2] | Cathepsin K (Homo sapiens, UniProt P43235) | ++ (++, >100) |
| O=C1C[C@H](NC(=O)[C@H](CC2CC2)NC(=O)C2CC2)C(O)O1 (stereo partly shown) [Example 21] | Cathepsin K (Homo sapiens, UniProt P43235) | + (+, >10) |
| N#Cc1cccc(C(=O)N[C@@H](CC2CCCC2)C(=O)N[C@H]2CC(=O)OC2O)c1 (stereo partly shown) [Example 18] | Cathepsin K (Homo sapiens, UniProt P43235) | ++ (++, >100) |
| O=C1C[C@H](NC(=O)[C@H](CC2CCCCC2)OC(=O)N2CCOCC2)C(O)O1 (stereo partly shown) [Example 3] | Cathepsin K (Homo sapiens, UniProt P43235) | + (+, >10) |
| O=C1C[C@H](NC(=O)[C@H](CC2CCCC2)NC(=O)c2cccc(C(F)(F)F)c2)C(O)O1 (stereo partly shown) [Example 24] | Cathepsin K (Homo sapiens, UniProt P43235) | ++ (++, >100) |
| O=C1C[C@H](NC(=O)[C@H](CC2CCCCC2)NS(=O)(=O)c2cccc(OC(F)(F)F)c2)C(O)O1 (stereo partly shown) [Example 7] | Cathepsin K (Homo sapiens, UniProt P43235) | ++ (++, >100) |
| COC1OC(=O)C[C@@H]1NC(=O)[C@H](CC1CCCCC1)NC(=O)c1ccc(-c2cccc(F)c2)o1 (stereo partly shown) [Example 16] | Cathepsin K (Homo sapiens, UniProt P43235) | + (+, >10) |
| O=C1C[C@H](NC(=O)O[C@@H](CC2CCCC2)Cn2cnc3cc(Cl)c(Cl)cc32)C(O)O1 (stereo partly shown) [Example 5] | Cathepsin K (Homo sapiens, UniProt P43235) | + (+, >10) |
| O=C1CC(NC(=O)C(CC2CCCC2)NC(=O)c2ccc(-c3cccc(F)c3)o2)C(OC2CCCC2)O1 (stereo not shown) [Example 26] | Cathepsin K (Homo sapiens, UniProt P43235) | + (+, >10) |
| O=C1C[C@H](NC(=O)[C@H](CC2CCCC2)NC(=O)OC2CCOCC2)C(O)O1 (stereo partly shown) [Example 20] | Cathepsin K (Homo sapiens, UniProt P43235) | ++ (++, >100) |
| CC(C)(C)C[C@H](NC(=O)C1CC1)C(=O)N[C@H]1CC(=O)OC1O (stereo partly shown) [Example 22] | Cathepsin K (Homo sapiens, UniProt P43235) | + (+, >10) |
| CCOC1OC(=O)C[C@@H]1NC(=O)[C@H](CC1CCCC1)NC(=O)c1ccc(-c2cccc(F)c2)o1 (stereo partly shown) [Example 12] | Cathepsin K (Homo sapiens, UniProt P43235) | + (+, >10) |

---

target: Cathepsin L (Homo sapiens); assay: Cathepsin L inhibition assay, selectivity for cathepsin S over cathepsin L; type: biochemical; settings: ratio of cathepsin L inhibition constant to cathepsin S inhibition constant
measure: Selectivity for Cat. S over Cat. L

| compound | meas.value |
| --- | --- |
| O=C1C[C@H](NC(=O)[C@H](CC2CCCCC2)NS(=O)(=O)c2cccc(OC(F)(F)F)c2)C(O)O1 (some centres unmarked) [Example 7] | ++ (++, >100) |
| O=C1C[C@H](NC(=O)[C@H](CC2CCCC2)NS(=O)(=O)c2cccc(OC(F)(F)F)c2)C(O)O1 (some centres unmarked) [Example 8] | ++ (++, >100) |
| O=C[C@H](CC(=O)O)NC(=O)[C@@H](CC(=O)N1CCOCC1)CC1CCCC1 [Example 4] | ++ (++, >100) |
| O=C1C[C@H](NC(=O)[C@H](CC2CCCC2)NC(=O)N2CCOCC2)C(O)O1 (some centres unmarked) [Example 2] | ++ (++, >100) |
| CC(C)(C)C[C@H](NC(=O)C1CC1)C(=O)N[C@H]1CC(=O)OC1O (some centres unmarked) [Example 22] | +++ (+++, >1000) |
| O=C1C[C@H](NC(=O)[C@H](CC2CC2)NC(=O)C2CC2)C(O)O1 (some centres unmarked) [Example 21] | ++ (++, >100) |
| COC1OC(=O)C[C@@H]1NC(=O)[C@H](CC1CCCCC1)NC(=O)c1ccc(-c2cccc(F)c2)o1 (some centres unmarked) [Example 16] | + (+, >10) |
| O=C1C[C@H](NC(=O)[C@H](CC2CCCCC2)NC(=O)c2ccc(-c3cccc(F)c3)o2)C(O)O1 (mixture of isomers) [Example 15] | ++ (++, >100) |
| O=C1C[C@H](NC(=O)[C@H](CC2CCCC2)NC(=O)OC2CCOCC2)C(O)O1 (some centres unmarked) [Example 20] | ++ (++, >100) |
| O=C1C[C@H](NC(=O)[C@H](CC2CCCC2)NC(=O)c2ccc(-c3cccc(C(F)(F)F)c3)o2)C(O)O1 (some centres unmarked) [Example 23] | +++ (+++, >1000) |
| CC(C)(C)C[C@H](OC(=O)N[C@H]1CC(=O)OC1O)C(=O)N1CCOCC1 (some centres unmarked) [Example 9] | ++ (++, >100) |
| O=C1CC(NC(=O)C(CC2CCCC2)NC(=O)c2ccc(-c3cccc(F)c3)o2)C(OC2CCCC2)O1 (centres unmarked) [Example 26] | +++ (+++, >1000) |
| O=C1C[C@H](NC(=O)[C@H](CC2CCCC2)NC(=O)c2cccc(C(F)(F)F)c2)C(O)O1 (some centres unmarked) [Example 24] | + (+, >10) |
| CCO[C@@H]1OC(=O)C[C@@H]1NC(=O)[C@H](CC(C)(C)C)NC(=O)OC(C)(C)C [Example 13] | + (+, >10) |

---

target: Cathepsin L (Homo sapiens, UniProt P07711); experiment: Cathepsin L inhibition assay, selectivity for cathepsin S over cathepsin L; format: biochemical; conditions: ratio of cathepsin L inhibition constant to cathepsin S inhibition constant
Sequence (P07711 114-333, species assumed): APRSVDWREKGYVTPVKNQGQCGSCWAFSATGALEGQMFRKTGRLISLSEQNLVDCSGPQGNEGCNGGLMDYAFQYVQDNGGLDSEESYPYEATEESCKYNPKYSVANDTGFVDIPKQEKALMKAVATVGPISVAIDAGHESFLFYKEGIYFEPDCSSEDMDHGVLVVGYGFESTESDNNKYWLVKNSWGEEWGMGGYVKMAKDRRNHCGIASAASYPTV
measure: Selectivity for Cat. S over Cat. L

| molecule | meas.value |
| --- | --- |
| O=C1C[C@H](NC(=O)O[C@@H](CC2CCCC2)Cn2cnc3cc(Cl)c(Cl)cc32)C(O)O1 (some centres unmarked) [Example 5] | + (+, >10) |
| O=C1C[C@H](NC(=O)[C@H](CC2CCCCC2)OC(=O)N2CCOCC2)C(O)O1 (some centres unmarked) [Example 3] | + (+, >10) |
| O=C1C[C@H](NC(=O)[C@@H](CC(=O)N2CCOCC2)CC2CCCCC2)C(O)O1 (some centres unmarked) [Example 6] | ++ (++, >100) |
| O=C1C[C@H](NC(=O)[C@H](CC2CCCC2)NC(=O)C2CC2)C(O)O1 (some centres unmarked) [Example 19] | +++ (+++, >1000) |
| CCOC1OC(=O)C[C@@H]1NC(=O)[C@H](CC1CCCC1)NC(=O)c1ccc(-c2cccc(F)c2)o1 (some centres unmarked) [Example 12] | ++ (++, >100) |
| N#Cc1cccc(C(=O)N[C@@H](CC2CCCC2)C(=O)N[C@H]2CC(=O)OC2O)c1 (some centres unmarked) [Example 18] | + (+, >10) |
| O=C1C[C@H](NC(=O)O[C@@H](CC2CCCCC2)C(=O)N2CCOCC2)C(O)O1 (some centres unmarked) [Example 10] | +++ (+++, >1000) |
| O=C1C[C@H](NC(=O)[C@H](CC2CCCC2)NC(=O)c2ccc(-c3cccc(F)c3)o2)C(O)O1 (some centres unmarked) [Example 1] | ++ (++, >100) |
